Attribute: TGI
Tested on: SK-OV-3 ovarian
Assay: NCI tumour cell line growth inhibition, 48 h

{"Molecule": "CCCCCCCCCC1(N=[N+]=[N-])C(=O)c2ccccc2N(C)C1=O (stereo unspecified)", "Parameter measured": "TGI", "Value measured": "> 100 µM"}

Briefly, TGI measured for "Nc1ccc(-c2nc3cc(F)ccc3s2)cc1Cl" : 52.6 µM

Briefly, TGI measured for "CCCCC1=NNC(=O)C1" : > 100 µM

Briefly, TGI measured for CCC(C)n1ncn(-c2ccc(N3CCN(c4ccc(OCC5COC(Cn6cncn6)(c6ccc(Cl)cc6Cl)O5)cc4)CC3)cc2)c1=O (stereo unspecified) : > 100 µM

Briefly, TGI measured for "CC1(C)CC(=O)c2[nH]c3ccccc3c2CC(=O)NCCc2cn1cn2" : > 100 µM

Briefly, TGI measured for COCC1OC(Sc2ccccc2)C(O)C(OC)C1OC (stereo unspecified) : > 100 µM

----------
System: SF-268 CNS
Assay: NCI tumour cell line growth inhibition, 48 h
Parameter measured: TGI

// below: answered compounds
{"Compound": "O=C(O)CC(CC(=O)O)C(=O)O", "TGI": "> 100 µM"}
{"Compound": "CCOC(=O)CCCn1c(SC)nc2[nH]cc(-c3ccccc3)c2c1=O", "TGI": "87.8 µM"}
{"Compound": "Cn1nc(N)c2cc([C@@H]3Nc4ccc5[nH]ncc5c4[C@H]4C5CCC(C5)[C@@H]34)ccc21 (stereo partly specified)", "TGI": "41 µM"}
{"Compound": "CS(=O)(=O)O[C@H]1CN2C[C@@H](O)[C@@H](O)[C@H]2[C@H]1CO", "TGI": "> 100 µM"}
{"Compound": "Cc1ccc(Cc2c(=O)[nH]nc3ccccc23)cc1", "TGI": "> 100 µM"}

Briefly, TGI measured for "CN(CC(=O)O)c1ncc2c(n1)-c1ccccc1SC2" : > 100 µM

----------
Attribute: TGI
Tested on: SK-MEL-28 melanoma
Experiment: NCI tumour cell line growth inhibition, 48 h

{"Compound": "CN(C(=O)C1=CCC2(CC1)OCCO2)c1ccccc1OS(=O)(=O)C(F)(F)F", "Parameter measured": "TGI", "Value measured": "> 100 µM"}
{"Compound": "CCn1c(-c2nonc2N)nc2c(C#CC(C)(C)O)nc(OC[C@H](N)c3ccccc3)cc21", "Parameter measured": "TGI", "Value measured": "8.56 µM"}
{"Compound": "CCOc1ccccc1C=C1c2ccccc2C(=O)c2ccccc21", "Parameter measured": "TGI", "Value measured": "> 100 µM"}

With those in mind, consider the next compound.
Entry "O=c1[nH]c2c(nc1NC13CC4CC(CC(C4)C1)C3)c(=O)oc1ccccc12" : TGI on SK-MEL-28 melanoma = > 100 µM

----------
Test system: OVCAR-8 ovarian
Test: NCI tumour cell line growth inhibition, 48 h
Parameter measured: TGI

Briefly, TGI measured for "COc1cccc(/C=C/c2cc(OC)c(OC)c(OC)c2)c1" : > 100 µM

Briefly, TGI measured for "O=C(Nc1nc2ccc(C(F)(F)F)cc2s1)c1cc(Cl)ccc1O" : > 100 µM

Briefly, TGI measured for "NS(=O)(=O)c1ccc(N=Nc2nc3[nH]c(=O)[nH]c(=O)c3[nH]2)cc1" : > 100 µM

Briefly, TGI measured for "CN(CC(=O)O)c1ncc2c(n1)-c1ccccc1SC2" : > 100 µM

Briefly, TGI measured for "CCCCCCCCCCCCCC1=NC(C)(C)CN1C(C)C" : 3.42 µM
